Catalogue of pKi values
Target: hCA II (Homo sapiens)
Construct: made in house
Assay: CA-catalysed CO2 hydration stopped-flow inhibition assay, hCA II
Type: biochemical
Conditions: Table 2, sulfamides 7 and 8
The scale used: pKi is minus the common logarithm of the concentration in molar units.

>  <Molecule>
NS(=O)(=O)Nc1ccc(CNC(=O)Nc2ccc(Cc3ccccc3)cc2)cc1 [Compound 8b]

>  <Recorded metric>
pKi

>  <Result value>
6.88

$$$$
>  <Molecule>
NS(=O)(=O)Nc1ccc(NC(=O)Nc2ccccc2-c2ccccc2)cc1 [Compound 7i]

>  <Recorded metric>
pKi

>  <Result value>
6.05

$$$$
>  <Molecule>
NS(=O)(=O)Nc1ccc(NC(=O)NC2CCCCC2)cc1 [Compound 7k]

>  <Recorded metric>
pKi

>  <Result value>
6.45

$$$$

## Input Using the record for COc1ccc(NC(=O)Nc2ccc(NS(N)(=O)=O)cc2)c(C)c1 [Compound 7e] , report its pKi.
## Output 6.50

## Input Which pKi value is on record for NS(=O)(=O)Nc1ccc(NC(=O)NCc2ccco2)cc1 [Compound 7a] ?
## Output 6.46

## Input Need pKi, item NS(=O)(=O)Nc1ccc(NC(=O)Nc2cccc([N+](=O)[O-])c2)cc1 [Compound 7d]
## Output 6.37

## Input pKi lookup needed for NS(=O)(=O)Nc1ccc(CNC(=O)Nc2ccc(F)cc2)cc1 [Compound 8d] , thanks.
## Output 6.63

## Input Endpoint output: pKi of NS(=O)(=O)Nc1ccc(CNC(=O)Nc2ccccc2Cl)cc1 [Compound 8h] . Value?
## Output 7.33

====

Biological target: hCA I (Homo sapiens, UniProt P00915)
Construct: made in house
Sequence (P00915 whole entry): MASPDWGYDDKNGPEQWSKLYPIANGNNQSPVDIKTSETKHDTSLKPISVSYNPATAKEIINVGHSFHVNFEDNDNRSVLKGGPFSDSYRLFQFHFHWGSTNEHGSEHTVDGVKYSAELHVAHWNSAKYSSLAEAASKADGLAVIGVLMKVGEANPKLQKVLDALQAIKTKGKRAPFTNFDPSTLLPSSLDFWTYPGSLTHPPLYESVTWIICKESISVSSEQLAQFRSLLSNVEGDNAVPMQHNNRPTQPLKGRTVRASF
Assay: CA-catalysed CO2 hydration stopped-flow inhibition assay, hCA I
Type: biochemical
Settings: Table 2, sulfamides 7 and 8
Recorded metric: pKi
FYI, pKi means -log10 of a concentration in mol per litre.

Here are 4 molecules together with their reported answers.
>  <Molecule>
NS(=O)(=O)Nc1ccc(NC(=O)Nc2ccc(Cl)cc2)cc1 [Compound 7o]

>  <Target under test>
hCA I (Homo sapiens, UniProt P00915)

>  <Result value>
5.42

$$$$
>  <Molecule>
CC(=O)c1ccc(NC(=O)NCc2ccc(NS(N)(=O)=O)cc2)cc1 [Compound 8e]

>  <Target under test>
hCA I (Homo sapiens, UniProt P00915)

>  <Result value>
5.44

$$$$
>  <Molecule>
CN(C)c1ccc(NC(=O)NCc2ccc(NS(N)(=O)=O)cc2)cc1 [Compound 8f]

>  <Target under test>
hCA I (Homo sapiens, UniProt P00915)

>  <Result value>
5.87

$$$$
>  <Molecule>
NS(=O)(=O)Nc1ccc(CNC(=O)Nc2ccc(F)cc2)cc1 [Compound 8d]

>  <Target under test>
hCA I (Homo sapiens, UniProt P00915)

>  <Result value>
5.55

$$$$

## Input // query pKi value for entry NS(=O)(=O)Nc1ccc(CNC(=O)Nc2ccc(Cc3ccccc3)cc2)cc1 [Compound 8b]
## Output 5.61

====

Recorded pKi by entry
Molecular target: hCA XII (Homo sapiens, UniProt O43570)
Construct: made in house
Sequence (O43570 25-354): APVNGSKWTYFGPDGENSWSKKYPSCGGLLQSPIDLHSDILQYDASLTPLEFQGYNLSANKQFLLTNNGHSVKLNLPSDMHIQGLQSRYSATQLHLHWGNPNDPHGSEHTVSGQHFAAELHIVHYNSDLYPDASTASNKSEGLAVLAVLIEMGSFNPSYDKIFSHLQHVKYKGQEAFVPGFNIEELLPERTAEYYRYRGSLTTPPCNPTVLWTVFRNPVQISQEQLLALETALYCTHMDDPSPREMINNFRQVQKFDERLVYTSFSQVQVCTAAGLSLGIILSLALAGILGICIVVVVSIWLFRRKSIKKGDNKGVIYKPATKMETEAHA
Assay: CA-catalysed CO2 hydration stopped-flow inhibition assay, hCA XII
Format: biochemical
Settings: Table 2, sulfamides 7 and 8
The read-out pKi is expressed as -log10 of concentration in moles per litre.

>  <Compound smiles>
CC(=O)c1ccc(NC(=O)NCc2ccc(NS(N)(=O)=O)cc2)cc1

>  <Result value>
7.85

$$$$

## Input Given COc1ccc(C)cc1NC(=O)Nc1ccc(NS(N)(=O)=O)cc1 , state its recorded pKi.
## Output 7.59

## Input # lookup: pKi of Cc1cc(Cl)ccc1NC(=O)Nc1ccc(NS(N)(=O)=O)cc1
## Output 7.80

## Input Fill in: pKi of COc1ccc(NC(=O)NCc2ccc(NS(N)(=O)=O)cc2)cc1 is ___
## Output 7.89

====

Molecular target: hCA IX (Homo sapiens)
Construct: made in house
Assay: CA-catalysed CO2 hydration stopped-flow inhibition assay, hCA IX
Assay type: biochemical
Details: Table 2, selectivity ratio
Recorded metric: KiCAII/KiCAIX
Kindly provide the number alone.

## Input Find the recorded KiCAII/KiCAIX belonging to COc1ccc(C)cc1NC(=O)Nc1ccc(NS(N)(=O)=O)cc1 and report it.
## Output 10.9

====

Biological target: hCA II (Homo sapiens, UniProt P00918)
Construct: made in house
Test: CA-catalysed CO2 hydration stopped-flow inhibition assay, hCA II
Format: biochemical
Details: Table 2, sulfamides 7 and 8
Recorded metric: pKi
Units for pKi: none; it is -log10 of a concentration expressed in mol/L.

Examples from the recorded data:
>  <Compound>
CCCCOc1ccc(NC(=O)Nc2ccc(NS(N)(=O)=O)cc2)cc1

>  <pKi>
6.51

$$$$
>  <Compound>
NS(=O)(=O)Nc1ccc(NC(=O)Nc2ccc(Cl)cc2)cc1

>  <pKi>
6.50

$$$$

--- query ---
## Input Item CC(C)c1ccccc1NC(=O)Nc1ccc(NS(N)(=O)=O)cc1 with hCA II (Homo sapiens, UniProt P00918) - pKi?
## Output 6.17

====

Target: hCA I (Homo sapiens)
Construct: made in house
Experiment: CA-catalysed CO2 hydration stopped-flow inhibition assay, hCA I
Type: biochemical
Details: Table 2, sulfamides 7 and 8
Ki reference
Write the numeric value and append its unit.

// worked examples, Ki included
>  <Compound smiles>
Cc1ccccc1NC(=O)NCc1ccc(NS(N)(=O)=O)cc1

>  <Ki>
3.8 µM

$$$$
>  <Compound smiles>
NS(=O)(=O)Nc1ccc(NC(=O)Nc2ccc(Cc3ccccc3)cc2)cc1

>  <Ki>
2.5 µM

$$$$
>  <Compound smiles>
COc1ccc(C)cc1NC(=O)Nc1ccc(NS(N)(=O)=O)cc1

>  <Ki>
4.3 µM

$$$$

## Input # get_value(readout='Ki', item= NS(=O)(=O)Nc1ccc(CNC(=O)Nc2ccccc2)cc1 )
## Output 3 µM

====

The entries below come with measured KiCAII/KiCAIX values attached.
Biological target: hCA IX (Homo sapiens, UniProt Q16790)
Construct: made in house
Assay: CA-catalysed CO2 hydration stopped-flow inhibition assay, hCA IX
Assay type: biochemical
Conditions: Table 2, selectivity ratio
Give a plain numeric answer without units written out.

Here is how some compounds turned out for KiCAII/KiCAIX.
>  <Compound smiles>
Cc1cc(C)cc(NC(=O)Nc2ccc(NS(N)(=O)=O)cc2)c1

>  <KiCAII/KiCAIX>
67.4

$$$$
>  <Compound smiles>
NS(=O)(=O)Nc1ccc(CNC(=O)Nc2ccccc2Cl)cc1

>  <KiCAII/KiCAIX>
2.8

$$$$
>  <Compound smiles>
NS(=O)(=O)Nc1ccc(CNC(=O)Nc2ccccc2)cc1

>  <KiCAII/KiCAIX>
14.2

$$$$
>  <Compound smiles>
NS(=O)(=O)Nc1ccc(NC(=O)NC2CCCCC2)cc1

>  <KiCAII/KiCAIX>
2.9

$$$$
>  <Compound smiles>
NS(=O)(=O)Nc1ccc(NC(=O)Nc2ccccc2-c2ccccc2)cc1

>  <KiCAII/KiCAIX>
6.1

$$$$

## Input Can you share its KiCAII/KiCAIX? I mean this compound: CC(=O)c1ccc(NC(=O)NCc2ccc(NS(N)(=O)=O)cc2)cc1
## Output 5.8

## Input KiCAII/KiCAIX for NS(=O)(=O)Nc1ccc(CNC(=O)Nc2ccc(Cc3ccccc3)cc2)cc1 ?
## Output 14.5

## Input Which KiCAII/KiCAIX value is on record for NS(=O)(=O)Nc1ccc(NC(=O)Nc2cccc([N+](=O)[O-])c2)cc1 ?
## Output 26.4

====

Recorded log10 Ki, one value per entry.
Biological target: hCA II (Homo sapiens, UniProt P00918)
Construct: made in house
Test: CA-catalysed CO2 hydration stopped-flow inhibition assay, hCA II
Format: biochemical
Details: Table 2, sulfamides 7 and 8
Kindly note that the scale is log10 and the underlying Ki is in nM.

## Input Param readout = log10 Ki; param system = hCA II (Homo sapiens, UniProt P00918); param query = Cc1cc(C)cc(NC(=O)Nc2ccc(NS(N)(=O)=O)cc2)c1 ; response: value
## Output 2.83

## Input For hCA II (Homo sapiens, UniProt P00918), provide log10 Ki of NS(=O)(=O)Nc1ccc(CNC(=O)Nc2ccccc2)cc1 please.
## Output 2.19

## Input Requested read-out log10 Ki, target or system hCA II (Homo sapiens, UniProt P00918), entry NS(=O)(=O)Nc1ccc(NC(=O)Nc2ccc(CCc3ccccc3)cc2)cc1
## Output 2.20

## Input What log10 Ki appears in the records for this compound with hCA II (Homo sapiens, UniProt P00918)? CN(C)c1ccc(NC(=O)NCc2ccc(NS(N)(=O)=O)cc2)cc1
## Output 1.68

## Input State its log10 Ki on hCA II (Homo sapiens, UniProt P00918): CC(=O)c1ccc(NC(=O)NCc2ccc(NS(N)(=O)=O)cc2)cc1
## Output 2.14

## Input Query the reported log10 Ki for hCA II (Homo sapiens, UniProt P00918); item: CC(NC(=O)Nc1ccc(NS(N)(=O)=O)cc1)c1cccc2ccccc12 (stereo not drawn)
## Output 2.61

## Input Give the reported log10 Ki for Cc1cc(Cl)ccc1NC(=O)Nc1ccc(NS(N)(=O)=O)cc1 (system: hCA II (Homo sapiens, UniProt P00918)).
## Output 2.13

## Input Lab note: need log10 Ki with hCA II (Homo sapiens, UniProt P00918) for entry COc1ccc(C)cc1NC(=O)Nc1ccc(NS(N)(=O)=O)cc1 , please look it up.
## Output 2.64

## Input Lab note: need log10 Ki for Cc1ccccc1NC(=O)NCc1ccc(NS(N)(=O)=O)cc1 on hCA II (Homo sapiens, UniProt P00918), anyone have it?
## Output 2.54

## Input Request - read-out log10 Ki | tested on hCA II (Homo sapiens, UniProt P00918) | compound COc1ccc(NC(=O)NCc2ccc(NS(N)(=O)=O)cc2)cc1
## Output 2.56

## Input Item NS(=O)(=O)Nc1ccc(NC(=O)Nc2ccc(Cc3ccccc3)cc2)cc1 with hCA II (Homo sapiens, UniProt P00918) - log10 Ki?
## Output 2.16

## Input Find log10 Ki (hCA II (Homo sapiens, UniProt P00918)) for the entry COc1ccc(OC)c(NC(=O)Nc2ccc(NS(N)(=O)=O)cc2)c1
## Output 2.65
